The measurements presented in this section are drawn from patent US10494380B2.

Give EC90 for every item shown.
- Tested on: HIV (HTLV-IIIB strain)
- method: HIV replication inhibition assay (Test Example 1; MT-4 cells, MTT)
- Type: cell-based
- conditions.used: Human immunodeficiency virus 1, MT4, 96 h; HIV (HTLV-IIIB strain), MT-4 cells, MTT, four days; read-out: EC90
A number alone suffices; assume nM.

Lookup result for Cc1ccc(-c2c([C@H](OC(C)(C)C)C(=O)O)c(C)c3c4c2c(Cl)c(C)n4CCN3C)cc1 ; measured EC90: 3.5

Lookup result for Cc1ccc(-c2c([C@H](OC(C)(C)C)C(=O)O)c(C)c3c4c2cc(C)n4CCN3c2ncc(OC3CCN(C)CC3)cn2)cc1 ; measured EC90: 11

Lookup result for Cc1c([C@H](OC(C)(C)C)C(=O)O)c(-c2ccc(Cl)cc2)c2cc(C)n3c2c1NC(=O)C3 ; measured EC90: 13

Lookup result for COCCCOc1cnc(N2CCn3c(C)cc4c(-c5ccc(Cl)cc5)c([C@H](OC(C)(C)C)C(=O)O)c(C)c2c43)nc1 ; measured EC90: 2.4

Lookup result for Cc1ccc(-c2c([C@H](OC(C)(C)C)C(=O)O)c(C)c3c4c2cc(COCc2ccccc2)n4CCN3C)cc1 ; measured EC90: 46

Lookup result for Cc1ccc(-c2c([C@H](OC(C)(C)C)C(=O)O)c(C)c3c4c2cc(C)n4CCN3c2ncc(N3CCOCC3)cn2)cc1 ; measured EC90: 2

Lookup result for Cc1ccc(-c2c([C@H](OC(C)(C)C)C(=O)O)c(C)c3c4c2cc(C)n4CCN3CCN2C3CCC2COC3)cc1 ; measured EC90: 5.4

Lookup result for CNCC(=O)N1CCn2c(C)cc3c(-c4ccc(Cl)cc4)c([C@H](OC(C)(C)C)C(=O)O)c(C)c1c32 ; measured EC90: 100

Lookup result for Cc1ccc(-c2c([C@H](OC(C)(C)C)C(=O)O)c(C)c3c4c2cc(C)n4CCN3CCO)cc1 ; measured EC90: 7.5

Lookup result for Cc1ccc(-c2c([C@H](OC(C)(C)C)C(=O)O)c(C)c3c4c2cc(C)n4CCN3c2nc3c(s2)CN(C)CC3)cc1 ; measured EC90: 5.5

Lookup result for Cc1ccc(-c2c([C@H](OC(C)(C)C)C(=O)O)c(Cl)c3c4c2cc(C)n4CCN3CCN(C)C)cc1 ; measured EC90: 30

Lookup result for CCN1CCn2c(C)cc3c(-c4ccc(C)cc4)c([C@H](OC(C)(C)C)C(=O)O)c(C)c1c32 ; measured EC90: 1.6

Lookup result for Cc1ccc(-c2c([C@H](OC(C)(C)C)C(=O)O)c(C)c3c4c2cc(CO)n4CCN3C)cc1 ; measured EC90: 25

Lookup result for CCOc1cnc(N2CCn3c(C)cc4c(-c5ccc(C)cc5)c([C@H](OC(C)(C)C)C(=O)O)c(C)c2c43)nc1 ; measured EC90: 2.2
